Every entry's value here was drawn from paper PMC9911399.

Biological target: T1, RBFOX1 RRM (Homo sapiens, UniProt Q9NWB1 109-208)
T1 sequence: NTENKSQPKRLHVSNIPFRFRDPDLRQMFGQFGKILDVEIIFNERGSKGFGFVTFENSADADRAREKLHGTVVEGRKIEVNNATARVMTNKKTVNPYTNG
Experiment: EMSA; HiTS-Eq, 1 nM pool, 10 min; buffer printed only for the single-RNA assays: 10 mM Tris pH 7.5, 150 mM NaCl, 3.4 mM EDTA, 0.001% NP-40, 30 C
Conditions: tags: His6 N-terminal (pET28a); label: 5' 32P
In all, about 16,000 sequences were measured (“ka relative to ugcaugu”: median about 0.0091, highest 2% from about 0.032 on). This excerpt belongs to a sample that is enriched for the highest values.

[
  {
    "binder": "GCCCGCU (DNA:RNA) RNA: GGGAGACCGGAAUUCAGAUUGUCCGCCCGCUUUAAAUCCCGUCGUAGCCACCA DNA 1: CAATCTGAATTCCGGTCTCCC DNA 2: TGGTGGCTACGACGGGATT",
    "binding signal": "0.0168 KA relative to UGCAUGU"
  },
  {
    "binder": "CGCCUUG (DNA:RNA) RNA: GGGAGACCGGAAUUCAGAUUGUCCCGCCUUGUUAAAUCCCGUCGUAGCCACCA DNA 1: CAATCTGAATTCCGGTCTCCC DNA 2: TGGTGGCTACGACGGGATT",
    "binding signal": "0.0242 KA relative to UGCAUGU"
  }
]
